Parameter 'readout' = pIC50; parameter 'system' = Signal peptidase I (Escherichia coli K-12, UniProt P00803).
Sequence (P00803 whole entry): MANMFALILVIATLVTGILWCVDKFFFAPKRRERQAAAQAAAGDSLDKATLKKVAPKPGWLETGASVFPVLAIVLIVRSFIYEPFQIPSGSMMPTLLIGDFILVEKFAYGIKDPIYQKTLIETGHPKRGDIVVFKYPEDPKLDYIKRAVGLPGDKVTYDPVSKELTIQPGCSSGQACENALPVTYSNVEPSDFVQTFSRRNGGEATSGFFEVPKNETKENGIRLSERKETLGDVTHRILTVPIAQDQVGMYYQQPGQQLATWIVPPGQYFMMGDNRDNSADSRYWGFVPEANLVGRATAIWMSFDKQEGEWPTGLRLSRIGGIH
Reminder that pIC50 means the negative base-10 logarithm of the concentration expressed in mol/L.

Record excerpt, results attached:
>>> print(df.to_string())
                                   molecule  measurement_label  endpoint_result
0  C=CCOC(=O)C1=CSC2CC(=O)N12 (stereo not drawn)              pIC50             5.00
1  O=C(OCc1ccccc1)C1=CSC2CC(=O)N12 (stereo not drawn)              pIC50             5.00

// switching to the query molecule
Reported pIC50 of O=C(OCCCCc1ccccc1)C1=CSC2CC(=O)N12 (stereo not drawn) : 4.89
